experiment: Oral bioavailability in rat at 50 mg/kg; format: ADME, organism-based; conditions: in vivo
measured quantity: bioavailability (%)
Give bare numbers, in %.

Value of bioavailability reported for the molecule COc1cc2c(cc1F)C(c1ccccc1Cl)=Nc1c(n[nH]c1C)N2 [RG-1530] is 88.7

---

assay: Antiproliferative activity against human prostate cancer cells by MTT assay; format: functional, cell-based; conditions: Cancer cell lines
measured quantity: IC50 (nM)
One number for each entry, in nM.

Value of IC50 reported for the compound COc1cc2c(cc1F)C(c1ccccc1Cl)=Nc1c(n[nH]c1C)N2 is 200

---

assay: Tmax in rat at 50 mg/kg, po; format: ADME, organism-based; design: dose 50 mg/kg, route oral; conditions: in vivo
measured quantity: Tmax (h)
Answers are plain numbers, in h.

Value of Tmax reported for the molecule COc1cc2c(cc1F)C(c1ccccc1Cl)=Nc1c(n[nH]c1C)N2 [RG-1530] is 4

---

assay: Terminal half life in mouse at 5 mg/kg, iv; format: ADME, organism-based; parameters: dose 5 mg/kg, route intravenous; conditions: in vivo, read-out: beta t1/2 (converted)
measured quantity: half-life (h)
Answers are plain numbers, in h.

Value of half-life reported for the compound COc1cc2c(cc1F)C(c1ccccc1Cl)=Nc1c(n[nH]c1C)N2 is 4.32

---

assay: Cmax in mouse at 25 mg/kg, po; format: ADME, organism-based; design: dose 25 mg/kg, route oral; conditions: in vivo
measured quantity: Cmax (µg/mL)
One number for each entry, in µg/mL.

Value of Cmax reported for the compound COc1cc2c(cc1F)C(c1ccccc1Cl)=Nc1c(n[nH]c1C)N2 is 5.07

---

test: Cmax in rat at 50 mg/kg, po; format: ADME, organism-based; set-up: dose 50 mg/kg, route oral; settings: in vivo
measured quantity: Cmax

Value of Cmax reported for the compound COc1cc2c(cc1F)C(c1ccccc1Cl)=Nc1c(n[nH]c1C)N2 is 5360 ng/mL

---

test: Antiproliferative activity against human melanoma cells by MTT assay; assay type: functional, cell-based; details: Melanoma cell
measured quantity: pIC50
Give bare numbers, as −log10 of the molar value.

Value of pIC50 reported for the compound COc1cc2c(cc1F)C(c1ccccc1Cl)=Nc1c(n[nH]c1C)N2 is 6.70

---

assay: Antiproliferative activity against human breast cancer cells by MTT assay; type: functional, cell-based; details: Cancer cell lines
measured quantity: IC50 (nM)
One number for each entry, in nM.

Value of IC50 reported for the compound COc1cc2c(cc1F)C(c1ccccc1Cl)=Nc1c(n[nH]c1C)N2 is 200

---

test: Volume of distribution at steady state in monkey at 1 mg/kg, iv; format: ADME, organism-based, Macaca mulatta; set-up: dose 1 mg/kg, route intravenous; conditions: rhesus monkey, in vivo, read-out: Vdss
measured quantity: Vd (L/kg)
One number for each entry, in L/kg.

Value of Vd reported for the compound COc1cc2c(cc1F)C(c1ccccc1Cl)=Nc1c(n[nH]c1C)N2 [RG-1530] is 1.59

---

Target: Aurora kinase A (Homo sapiens)
Sequence (O14965 whole entry): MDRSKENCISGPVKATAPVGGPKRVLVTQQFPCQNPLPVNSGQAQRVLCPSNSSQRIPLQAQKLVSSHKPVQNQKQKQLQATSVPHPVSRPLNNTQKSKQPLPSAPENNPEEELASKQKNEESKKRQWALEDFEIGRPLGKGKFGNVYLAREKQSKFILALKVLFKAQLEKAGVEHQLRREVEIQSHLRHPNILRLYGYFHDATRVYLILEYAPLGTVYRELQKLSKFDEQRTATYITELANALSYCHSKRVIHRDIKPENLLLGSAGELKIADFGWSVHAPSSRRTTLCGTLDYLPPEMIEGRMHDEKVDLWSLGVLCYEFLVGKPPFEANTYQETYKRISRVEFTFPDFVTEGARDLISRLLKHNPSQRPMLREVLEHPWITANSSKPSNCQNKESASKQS
measured quantity: IC50 (nM)
Answers are plain numbers, in nM.

Value of IC50 reported for the molecule COc1cc2c(cc1F)C(c1ccccc1Cl)=Nc1c(n[nH]c1C)N2 [RG-1530] is 58
